Test system: ATP;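 note: ATP exposure 15 min at 22 °C before imaging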
Experiment: switch fluorescence ratio, 500 uM ATP over buffer (Cy3 cluster intensity, sum of 5 cycles each) (fold (ratio)); higher = stronger signal-on switching upon ATP binding; sequences stand for … in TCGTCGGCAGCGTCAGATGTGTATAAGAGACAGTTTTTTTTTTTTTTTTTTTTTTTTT…TC
Conditions: aptamer strand: ATP DNA aptamer (quencher-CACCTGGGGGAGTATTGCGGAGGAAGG + anchor), 100 nM annealed; ATP concentration: 500 uM
endpoint label: switch fluorescence ratio

>>> meas_value("CGTTTACTCT")
1.06
>>> meas_value("GGAATAGTGG")
0.982
>>> meas_value("GAGCTAGGAG")
1
>>> meas_value("TCATACGTCT")
0.986
>>> meas_value("TTCCTAATT")
1.03
>>> meas_value("AAATTTTTGC")
1.05
>>> meas_value("GAGGACTTAG")
0.989
>>> meas_value("TTCATGTTGG")
0.998
>>> meas_value("CAATTGCTGT")
1.01
>>> meas_value("AAGTCGAGTC")
0.996
>>> meas_value("GCCGGAGGGA")
0.989
>>> meas_value("CGGATTGTAG")
1.03
>>> meas_value("TTTTGCATTA")
1.33
>>> meas_value("CTTGTAACTT")
1.01
>>> meas_value("AGGCAGAGTA")
0.992
>>> meas_value("ATCTATGTTT")
0.987
>>> meas_value("TGAGTCGAGC")
1.01
>>> meas_value("ATACTTAAGG")
1.02
>>> meas_value("GGGGGAAATG")
0.994
>>> meas_value("TGTGGGGAAT")
1.04
>>> meas_value("AGGAGGTAAA")
1
>>> meas_value("ACAACATCCT")
1.08
>>> meas_value("CCTAGGTTTC")
0.981
>>> meas_value("AATTATGGTT")
1.03
>>> meas_value("CTATGAATTA")
0.984
>>> meas_value("AAAATCAGGC")
0.944
>>> meas_value("TGACTACATG")
1.04
>>> meas_value("GCGAGGGTCT")
1.01
>>> meas_value("GGGGTCCTGG")
0.943
>>> meas_value("TTTTCACTTC")
1.03
>>> meas_value("GCTTAAAGGC")
1.01
>>> meas_value("GCCAGTTGTC")
0.998
>>> meas_value("AATCCTTTTT")
1
>>> meas_value("CGGGGACGAC")
1.63
>>> meas_value("TTCAGAGGAT")
1.02
>>> meas_value("TATGTTCGAG")
0.968
>>> meas_value("TGGCCGCGGA")
1.01
>>> meas_value("GCTGTGGCGT")
1.02
>>> meas_value("GAGGAGAAGA")
1.02
>>> meas_value("GTGCGACGTT")
0.965
>>> meas_value("TTTTCAACCA")
1.06
>>> meas_value("GGATGGGATA")
1
>>> meas_value("TGGTTGGGGT")
1.01
>>> meas_value("GAACTAGGTC")
1.01
>>> meas_value("AACACTGATT")
1.04
>>> meas_value("CGAAGGGGTA")
0.987
>>> meas_value("TATATGGCCC")
1.02
>>> meas_value("GTCACGTATT")
1.16
>>> meas_value("AGCTAAAACG")
1.14
>>> meas_value("TCAATTTAGG")
0.966
>>> meas_value("GGTTTGACTA")
0.986
>>> meas_value("TGAGAGTTTG")
0.987
>>> meas_value("TCAAAAATAT")
0.987
>>> meas_value("GTAAGATTAT")
0.985
>>> meas_value("CAGGTAGGCG")
0.984
>>> meas_value("GGGAAACAAT")
1.55
>>> meas_value("ATCAGTAAAA")
1.01
>>> meas_value("ACCAGAGGTA")
1.01
>>> meas_value("GCGTACTGTG")
0.994
>>> meas_value("GAGAGTTAAA")
0.976
>>> meas_value("GGCCGGGAAT")
0.994
>>> meas_value("ATGGGGTTTC")
1.01
>>> meas_value("TTTTTCATAT")
1.08
>>> meas_value("CTATTTGACT")
0.958
>>> meas_value("TTAGTGCCGG")
0.994
>>> meas_value("TGAGAGGAGT")
0.991
>>> meas_value("TGGGTGCATG")
0.99
>>> meas_value("GGTACTTCGA")
0.994
>>> meas_value("AGTCTATCTG")
0.964
>>> meas_value("AGCTTTAGGG")
0.99
>>> meas_value("AATTGCAGAG")
1.01
>>> meas_value("CGGGGGGCCT")
1.01
>>> meas_value("TTGATACCTA")
1.04
>>> meas_value("GGGTTCAGAG")
1
>>> meas_value("ACAACGGGGT")
1.01
>>> meas_value("GTGGGGCCGC")
0.979
>>> meas_value("TCGGCAGTGG")
1.03
>>> meas_value("CTTGGGGCTC")
0.946
>>> meas_value("GGGGTTCATT")
1.01
>>> meas_value("TTACCCATTT")
1.1
>>> meas_value("TGGCAATTTG")
1
>>> meas_value("CCTAGGGCGG")
1.01
>>> meas_value("GAAATGGGGG")
0.991
>>> meas_value("CGTCAGTGCA")
1.01
>>> meas_value("GCAGTCTGTG")
0.98
>>> meas_value("AAGGTAGCGC")
0.974
